// provenance: the Immune Epitope Database (IEDB)

molecular target: HLA-A*31:01; assay: IEDB peptide-MHC binding, purified MHC/direct/fluorescence; filed as Kd, often an IC50 or EC50 that approximates it; bounds were set here for any values at or beyond the usual limits of such assays; conditions: source organism: Lake Victoria marburgvirus - Popp
pKd: −log10 of the molar value.
propertyLabel: pKd

Please fill in: pKd reported for FLMRNAIQY = ≤ 4.70

###

target: HLA-A*29:02; experiment: IEDB peptide-MHC binding, purified MHC/direct/fluorescence; filed as Kd, often an IC50 or EC50 that approximates it; bounds were set here for any values at or beyond the usual limits of such assays; settings: source organism: Mycobacterium tuberculosis str. Haarlem
propertyLabel: Kd

Please fill in: Kd reported for WASGVPAAT = ≥ 20 µM
